System: 292921-168-R-J2-PDC spheroids with HUVEC/MSC, viability;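 note: spheroids exposed to drugs for seven days before readout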
Assay: Anticancer human tumor 292921-168-R-J2-PDC patient-derived pancreatic carcinoma cell line growth inhibition [TAK]
Details: curve of first compound; second compound 0.949 µM
Please provide measured pIC50 for the entries that follow.
# pIC50: negative log10 of molar concentration; output just the value

Kindly note the recorded pIC50 for CC(C)n1nc(-c2ccc3oc(N)nc3c2)c2c(N)ncnc21 + CC(C)NCC(C(=O)N1CCN(c2ncnc3c2C(C)CC3O)CC1)c1ccc(Cl)cc1 , which is 8.07

Kindly note the recorded pIC50 for CC(C)(C)c1nc(-c2cccc(NS(=O)(=O)c3c(F)cccc3F)c2F)c(-c2ccnc(N)n2)s1 + CC(C)NCC(C(=O)N1CCN(c2ncnc3c2C(C)CC3O)CC1)c1ccc(Cl)cc1 , which is 5.74

Kindly note the recorded pIC50 for CC(C)CC(NC(=O)C(Cc1ccccc1)NC(=O)c1cnccn1)B(O)O (stereo not given) + CC(C)NCC(C(=O)N1CCN(c2ncnc3c2C(C)CC3O)CC1)c1ccc(Cl)cc1 , which is 8.39

Kindly note the recorded pIC50 for Cc1nc(NC(=O)N2CCCC2C(N)=O)sc1-c1ccnc(C(C)(C)C(F)(F)F)c1 (stereo not given) + CC(C)NCC(C(=O)N1CCN(c2ncnc3c2C(C)CC3O)CC1)c1ccc(Cl)cc1 , which is 6.73
